assay: Blood level after a 10 mg/kg oral dose in rat expressed as AUC was determined; assay type: ADME, organism-based; set-up: dose 10 mg/kg, route oral
Observation type: AUC (ng·h/mL)

Recorded results for 4 compounds are shown here.
compound="N=C(N)c1ccc(C(=O)Nc2ccc3c(c2)CCC(CC(=O)O)C3=O)c(F)c1 (stereo unspecified)" observation_type=AUC u=ng·h/mL observed=11900
compound="O=C(O)CC1CCc2cc(NC(=O)/C=C/C3CCNCC3)ccc2C1=O (stereo unspecified)" observation_type=AUC u=ng·h/mL observed=8140
compound="N=C(N)c1cc(F)c(C(=O)Nc2ccc3c(c2)CCC(CC(=O)O)C3=O)c(F)c1 (stereo unspecified)" observation_type=AUC u=ng·h/mL observed=6410
compound="N=C(N)c1ccc(C(=O)Nc2ccc3c(c2)CCC(CC(=O)O)C3=O)c(Cl)c1 (stereo unspecified)" observation_type=AUC u=ng·h/mL observed=10400

A: N=C(N)c1ccc(C(=O)Nc2ccc3c(c2)CCC(CC(=O)O)C3=O)cc1 (stereo unspecified)
B: N=C(N)c1ccc(C(=O)Nc2ccc3c(c2)CCC(CC(=O)O)C3=O)cn1 (stereo unspecified)
Looking at recorded values for AUC, does A or B come in lower? Give the label of your selection.
B
